# experiment: in vivo
# assayConditions: mouse, in vivo, po
Where a name gives a salt, the structure may show the parent alone.
measuredEndpoint: LD50

May I ask what LD50 has been recorded for Cc1cc(Br)cc(CN2CCCCCC2)c1N [D, dihydrochloride] ?
> 1000 mg/kg

====

# Tested on: white mice
# experiment: in vivo
# assayConditions: single 1000 mgm/kg p.o.
# Method: The acute toxicity of the test compounds was determined after a single application of 1000 or 2000 mgm/kg p.o., respectively, to 5 white mice each.
Counter-ions that a name gives are not always drawn.
measuredEndpoint: animals died

Some compounds with recorded animals died:
CN(C)Cc1cc(F)cc(Br)c1N.Cl | 0 out of 5
CCN(Cc1cc(C(=O)O)cc(Br)c1N)C1CCCCC1.Cl | 0 out of 5
CC(C)(C)c1cc(N)c(CN2CCOCC2)cc1Br.Cl.Cl | 0 out of 5
CC(=O)c1cc(Br)c(N)c(CN(C)C)c1 | 2 out of 5

Now take the following compound into account.
Returns the measured animals died for the input compound. Input: Cc1cc(Br)cc(CN2CCCCCC2)c1N [D, dihydrochloride]
0 out of 5

====

# experiment: in vivo
# assayConditions: mouse, in vivo, po; single application; 5 white mice; read-out: Acute toxicity
measuredEndpoint: LD50

CN(C)Cc1cc(F)cc(Br)c1N.Cl | > 1000 mg/kg

Please turn your attention to the following entry.
I have this compound here, `CCN(Cc1cc(C(=O)O)cc(Br)c1N)C1CCCCC1.Cl` , and I need its recorded LD50.
> 1000 mg/kg

====

# experiment: in vivo
# assayConditions: mouse, in vivo, po; single application; 5 white mice; read-out: Acute toxicity
measuredEndpoint: LD50

Would you please look over these solved cases?
CC(=O)c1cc(Br)c(N)c(CN(C)C)c1 | ~1000 mg/kg
CCOC(=O)c1cc(Br)c(N)c(CN(CC)CC)c1.Cl | > 2000 mg/kg

Proceed to the following item.
May I ask what LD50 has been recorded for `CC(C)(C)c1cc(N)c(CN2CCOCC2)cc1Br.Cl.Cl` ?
> 1000 mg/kg
